- System: mast cell degranulation
- assay.method.text: Serotonin release assay (inhibition of mast cell degranulation)
- Format: cell-based
- condition.notes: 50 μM; Table 4; average of duplicates
Label label 1 for high-side AVERAGE % RELEASE (at or above 20%) and label 0 for low-side AVERAGE % RELEASE (below it).

INSERT INTO assay_data (compound, system_name, group_label) VALUES
  ('C=CCCCCCCCn1c(=O)c2c(ncn2C)n(C)c1=O', 'mast cell degranulation', 'label 1'),
  ('C=CCCCCCCCCCCn1c(=O)c2c(ncn2C)n(C)c1=O', 'mast cell degranulation', 'label 1'),
  ('CC/C=C\CCCCCn1c(=O)ccn(C)c1=O [CT1814, 3-(6-cis-nonenyl)1-methyluracil]', 'mast cell degranulation', 'label 1');

Say whether "C=CCCCCCCCCCn1c(=O)c2c(ncn2COC(=O)C(C)(C)C)n(C)c1=O" shows AVERAGE % RELEASE of 20% or more.
label 0

Input "C=CCCCCn1c(=O)c2c(ncn2C)n(C)c1=O"
label 1

Input "C=CCCCCCCCCn1c(=O)c2c(ncn2C)n(C)c1=O"
label 1

Input C=CCCCCCCCN1C(=O)CCCC1=O [CT1604, N-(8-nonenyl)glutarimide]
label 0

Input "C=CCCCn1c(=O)c2c(ncn2C)n(C)c1=O"
label 1
